FYI, the data here is from patent US10323000B2.

- tested-target: P2X7 (IL-1β release from THP-1 cells) (Homo sapiens (Human), UniProt Q99572)
- Sequence (Q99572 whole entry): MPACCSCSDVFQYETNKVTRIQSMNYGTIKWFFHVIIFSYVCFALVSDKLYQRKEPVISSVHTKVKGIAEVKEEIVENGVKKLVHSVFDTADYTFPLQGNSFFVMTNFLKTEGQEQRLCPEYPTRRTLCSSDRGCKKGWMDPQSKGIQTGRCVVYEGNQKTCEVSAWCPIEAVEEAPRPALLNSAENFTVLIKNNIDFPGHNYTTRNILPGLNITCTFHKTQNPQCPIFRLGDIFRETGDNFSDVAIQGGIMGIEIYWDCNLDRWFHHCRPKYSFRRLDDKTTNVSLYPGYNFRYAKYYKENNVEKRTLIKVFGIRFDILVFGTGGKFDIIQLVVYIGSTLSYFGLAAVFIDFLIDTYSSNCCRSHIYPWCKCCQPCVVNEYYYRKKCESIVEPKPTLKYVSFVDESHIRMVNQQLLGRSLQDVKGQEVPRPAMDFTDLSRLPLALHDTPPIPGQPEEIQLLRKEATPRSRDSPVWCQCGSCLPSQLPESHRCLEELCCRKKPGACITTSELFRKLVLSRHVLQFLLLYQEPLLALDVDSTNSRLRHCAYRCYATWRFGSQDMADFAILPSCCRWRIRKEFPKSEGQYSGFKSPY
- procedure-details: IL-1β release assay
- Type: cell-based
In this section, each of the molecules is paired with its reported IC50.
test-readout: IC50

>>> df
                                   molecule  test_readout          reading
0  O=C(NCC1(O)CCCC(F)(F)C1)c1cn(CC2CCNC2)c2cccc(Cl)c12 (centres unmarked)          IC50  0.101 to 0.5 µM
1  O=C(NCC1(N2CCN(c3ccccc3)CC2)CCOCC1)c1cn(C2COC2)c2cccc(Cl)c12          IC50  0.101 to 0.5 µM
2  O=C(NCC1(O)CCCC(F)(F)C1)c1cn(CC2CNC2)c2cccc(Cl)c12 (centres unmarked)          IC50   0.01 to 0.1 µM
3  O=C(NCC1CCC(F)(F)CC1)c1cn(CC2COCCO2)c2cccc(Cl)c12 (centres unmarked)          IC50   0.01 to 0.1 µM
4  C[C@H]1CCC[C@@](O)(CNC(=O)c2cn(C3COC3)c3cccc(Cl)c23)C1          IC50   0.01 to 0.1 µM
5  O=C(NCC1(O)CCC(F)(F)CC1)c1cn(C[C@H]2CCCO2)c2cccc(Cl)c12          IC50   0.01 to 0.1 µM
6  CN1C(=O)CC[C@@H]1Cn1cc(C(=O)NCC2CCC(F)(F)CC2)c2c(Cl)cccc21          IC50   0.01 to 0.1 µM
7  O=C(NCC1(O)CCC(F)(F)CC1)c1cn(C2CCCO2)c2cccc(Cl)c12 (centres unmarked)          IC50  0.101 to 0.5 µM

* * *

In this section, each of the compounds is paired with its reported IC50.
- tested-target: human P2X7 receptor (Homo sapiens (Human), UniProt Q99572)
- procedure-details: Pore permeation assay (YO PRO dye uptake)
- Type: cell-based
test-readout: IC50

In [3]: df
Out[3]:
                                    compound        reading
 0  O=C(NCC1CCC(F)(F)CC1)c1cn(CC2CCO2)c2cccc(Cl)c12 (centres unmarked)   10 to 100 nM
 1  O=C(NCC1CCC(F)(F)CC1)c1cn(CCC(F)(F)F)c2cccc(Cl)c12   10 to 100 nM
 2  CN1CCC[C@H]1Cn1cc(C(=O)NCC2(O)CCC(F)(F)CC2)c2c(Cl)cccc21   10 to 100 nM
 3  NCCn1cc(C(=O)NCC2CCC(F)(F)CC2)c2c(Cl)cccc21  101 to 500 nM
 4  O=C(NCC1(O)CCC(F)(F)CC1)c1cn(C2COC2)c2cccc(Cl)c12   10 to 100 nM
 5  O=C(NCCC1CCCC1)c1cn(C2CCOC2)c2cccc(Cl)c12 (centres unmarked)   10 to 100 nM
 6  O=C(NCC1(O)CCC(F)(F)CC1)c1cn(C2CCOC2)c2cccc(Cl)c12 (centres unmarked)  101 to 500 nM
 7  O=C(NCC1CCC(F)(F)CC1)c1cn(CCOC2CC2)c2cccc(Cl)c12   10 to 100 nM
 8  O=C(NCC1CCC(F)(F)CC1)c1cn(C[C@@H]2CCN2)c2cccc(Cl)c12   10 to 100 nM
 9  CC(C)(CNC(=O)c1cn(C2CCOC2)c2cccc(Cl)c12)C1CCCC1 (centres unmarked)  101 to 500 nM
10  O=C(NC[C@]1(O)CCCC(F)(F)C1)c1cn(C[C@@H]2CCCO2)c2cccc(Cl)c12   10 to 100 nM
11  O=C(NCC1CCC(F)(F)CC1)c1cn(CC(=O)N2CCCCC2)c2cccc(Cl)c12   10 to 100 nM
12  O=C(NCC1CCC(F)(F)CC1)c1cn(C[C@@H]2CCCO2)c2cccc(Cl)c12   10 to 100 nM
13  O=C(NCC1CCC(F)(F)CC1)c1cn(C[C@H]2CCCO2)c2cccc(Cl)c12   10 to 100 nM
14  O=C(NC[C@H]1CCCC[C@H]1O)c1cn(C2COC2)c2cccc(Cl)c12  101 to 500 nM
15  O=C(NCC1(O)CCCC(F)(F)C1)c1cn(CCN2CCCC2=O)c2cccc(Cl)c12 (centres unmarked)   10 to 100 nM
16  O=C(NCC1CCC(F)(F)CC1)c1cn(C[C@H]2CCN2)c2cccc(Cl)c12  101 to 500 nM

* * *

In this section, each of the compounds is paired with its reported IC50.
- tested-target: human P2X7 receptor (Homo sapiens (Human), UniProt Q99572)
- procedure-details: Pore permeation assay (YO PRO dye uptake)
- Type: cell-based
test-readout: IC50

In [3]: df
Out[3]:
                                    compound                             tested_target          reading
 0  O=C(NC[C@@H]1CCCC(F)(F)C1)c1cn(C2COC2)c2cccc(Cl)c12  human P2X7 receptor (Homo sapiens (Human), UniProt Q99572)   0.01 to 0.1 µM
 1  COCCn1cc(C(=O)NCCc2ccc(F)cc2Cl)c2c(Cl)cccc21  human P2X7 receptor (Homo sapiens (Human), UniProt Q99572)  0.101 to 0.5 µM
 2  O=C(NCC1CCC(F)(F)CC1)c1cn(CC2COCCN2)c2cccc(Cl)c12 (stereo not shown)  human P2X7 receptor (Homo sapiens (Human), UniProt Q99572)  0.101 to 0.5 µM
 3  O=C(NCC1CCC(F)(F)CC1)c1cn(CC2CCCO2)c2cccc(Cl)c12 (stereo not shown)  human P2X7 receptor (Homo sapiens (Human), UniProt Q99572)   0.01 to 0.1 µM
 4  O=C(NCC1(O)CCCC(F)(F)C1)c1cn(CC2CCNC2)c2cccc(Cl)c12 (stereo not shown)  human P2X7 receptor (Homo sapiens (Human), UniProt Q99572)   0.01 to 0.1 µM
 5  CC1(C)CCCC(O)(CNC(=O)c2cn(C3COC3)c3cccc(Cl)c23)C1 (stereo not shown)  human P2X7 receptor (Homo sapiens (Human), UniProt Q99572)   0.01 to 0.1 µM
 6  CC1CC(CNC(=O)c2cn(CC3CCCN3)c3cccc(Cl)c23)CC(F)(F)C1 (stereo not shown)  human P2X7 receptor (Homo sapiens (Human), UniProt Q99572)   0.01 to 0.1 µM
 7  COCCn1cc(C(=O)NCC2(c3ccccc3)CCCCC2)c2c(Cl)cccc21  human P2X7 receptor (Homo sapiens (Human), UniProt Q99572)   0.01 to 0.1 µM
 8  CN1CCCC1Cn1cc(C(=O)NCC2CCC(F)(F)CC2)c2c(Cl)cccc21 (stereo not shown)  human P2X7 receptor (Homo sapiens (Human), UniProt Q99572)   0.01 to 0.1 µM
 9  C[C@@H]1CCC[C@](O)(CNC(=O)c2cn(C3CCOC3)c3cccc(Cl)c23)C1 (stereo partly shown)  human P2X7 receptor (Homo sapiens (Human), UniProt Q99572)   0.01 to 0.1 µM
10  O=C(NCC1(O)CCCCC1)c1cn(C2COC2)c2cccc(Cl)c12  human P2X7 receptor (Homo sapiens (Human), UniProt Q99572)   0.01 to 0.1 µM
11  O=C(NCC1(O)CCCC(F)(F)C1)c1cn(C[C@H]2CCCO2)c2cccc(Cl)c12 (stereo partly shown)  human P2X7 receptor (Homo sapiens (Human), UniProt Q99572)   0.01 to 0.1 µM
12  COCCn1cc(C(=O)NCC2CCC(F)(F)CC2)c2c(Cl)cccc21  human P2X7 receptor (Homo sapiens (Human), UniProt Q99572)   0.01 to 0.1 µM
13  O=C(NCC1(O)CCCC(F)(F)C1)c1cn(CCN2CCCC2)c2cccc(Cl)c12 (stereo not shown)  human P2X7 receptor (Homo sapiens (Human), UniProt Q99572)   0.01 to 0.1 µM
14  O=C(NCC1(O)CCCC(F)(F)C1)c1cn(CC2CCCO2)c2cccc(Cl)c12 (stereo not shown)  human P2X7 receptor (Homo sapiens (Human), UniProt Q99572)   0.01 to 0.1 µM
15  O=C(NCC1(O)CCCC(F)(F)C1)c1cn(CC2CCOC2)c2cccc(Cl)c12 (stereo not shown)  human P2X7 receptor (Homo sapiens (Human), UniProt Q99572)   0.01 to 0.1 µM
16  O=C(NCC(c1ccccc1)C1CCCC1)c1cn(C2COC2)c2cccc(Cl)c12 (stereo not shown)  human P2X7 receptor (Homo sapiens (Human), UniProt Q99572)   0.01 to 0.1 µM
17  COCCn1cc(C(=O)NCC2(c3ccc(C(F)(F)F)cc3)CCOCC2)c2c(Cl)cccc21  human P2X7 receptor (Homo sapiens (Human), UniProt Q99572)   0.01 to 0.1 µM
18  COCCn1cc(C(=O)NCc2ccccc2C(F)(F)F)c2c(Cl)cccc21  human P2X7 receptor (Homo sapiens (Human), UniProt Q99572)  0.5 to 0.999 µM
19  O=C(NC[C@@]1(O)CCCC(F)(F)C1)c1cn(C[C@@H]2CCCO2)c2cccc(Cl)c12  human P2X7 receptor (Homo sapiens (Human), UniProt Q99572)  0.101 to 0.5 µM
20  O=C(NC[C@H]1CCCC(F)(F)C1)c1cn(C2COC2)c2cccc(Cl)c12  human P2X7 receptor (Homo sapiens (Human), UniProt Q99572)   0.01 to 0.1 µM
21  CC1CC(O)(CNC(=O)c2cn(C3COC3)c3cccc(Cl)c23)CCC1(F)F (stereo not shown)  human P2X7 receptor (Homo sapiens (Human), UniProt Q99572)  0.101 to 0.5 µM
22  O=C(NCC1(O)CCCC(F)(F)C1)c1cn(CC2CNC2)c2cccc(Cl)c12 (stereo not shown)  human P2X7 receptor (Homo sapiens (Human), UniProt Q99572)   0.01 to 0.1 µM
23  C[C@@H]1CCC[C@](O)(CNC(=O)c2cn(CC(F)(F)F)c3cccc(Cl)c23)C1  human P2X7 receptor (Homo sapiens (Human), UniProt Q99572)   0.01 to 0.1 µM
24  O=C(NC[C@]1(O)CCCC(F)(F)C1)c1cn(CCN2CCCC2)c2cccc(Cl)c12  human P2X7 receptor (Homo sapiens (Human), UniProt Q99572)  0.101 to 0.5 µM
25  O=C(NCC1CCC(F)(F)CC1)c1cn(C2CCOC2)c2cccc(Cl)c12 (stereo not shown)  human P2X7 receptor (Homo sapiens (Human), UniProt Q99572)   0.01 to 0.1 µM
26  CN1CCOCC1Cn1cc(C(=O)NCC2CCC(F)(F)CC2)c2c(Cl)cccc21 (stereo not shown)  human P2X7 receptor (Homo sapiens (Human), UniProt Q99572)  0.101 to 0.5 µM
27  CC1CC(F)(F)CC(O)(CNC(=O)c2cn(CC3CCCO3)c3cccc(Cl)c23)C1 (stereo not shown)  human P2X7 receptor (Homo sapiens (Human), UniProt Q99572)  0.101 to 0.5 µM
28  O=C(NCC1CCC(F)(F)CC1)c1cn(CCN2CCCCC2)c2cccc(Cl)c12  human P2X7 receptor (Homo sapiens (Human), UniProt Q99572)   0.01 to 0.1 µM
29  O=C(NCC1CCCC(C(F)(F)F)C1)c1cn(C2COC2)c2cccc(Cl)c12 (stereo not shown)  human P2X7 receptor (Homo sapiens (Human), UniProt Q99572)   0.01 to 0.1 µM
30  O=C(NCC1(O)CCCC(F)(F)C1)c1cn(C2CCNC2)c2cccc(Cl)c12 (stereo not shown)  human P2X7 receptor (Homo sapiens (Human), UniProt Q99572)   0.01 to 0.1 µM
31  O=C(NCC1(N2CCN(c3ccccc3)CC2)CCCCC1)c1cn(C2COC2)c2cccc(Cl)c12  human P2X7 receptor (Homo sapiens (Human), UniProt Q99572)   0.01 to 0.1 µM
32  COCCn1cc(C(=O)NCC2(O)CCCCC2)c2c(Cl)cccc21  human P2X7 receptor (Homo sapiens (Human), UniProt Q99572)   0.01 to 0.1 µM
33  O=C1NC[C@H](Cn2cc(C(=O)NCC3CCC(F)(F)CC3)c3c(Cl)cccc32)O1  human P2X7 receptor (Homo sapiens (Human), UniProt Q99572)   0.01 to 0.1 µM
